Provenance of the data: patent US20190367619A1

tested target: T1, human galectin-10-His (human)
T1 construct: The last M of the tag may be Met1 of galectin-10; also called humanGal10-His; hGal10
T1 chain: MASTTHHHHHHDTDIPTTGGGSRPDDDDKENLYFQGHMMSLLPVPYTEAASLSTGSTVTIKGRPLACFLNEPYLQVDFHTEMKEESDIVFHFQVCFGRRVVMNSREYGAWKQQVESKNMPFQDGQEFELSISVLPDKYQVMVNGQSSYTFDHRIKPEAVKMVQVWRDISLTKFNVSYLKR
assay remarks: ELISA, galectin-10-His coated at 1 ug/mL, Fab
Bmax strictly less than 0.9 OD = Satisfied. Otherwise Not satisfied.

Query :: Does this binder meet the criterion Bmax < 0.9 OD? 7B07 Fab (Fab, V domains shown, Fab with human CH1 (including part of the hinge region) and human lambda constant domain; also called 7B7; 7B07 hFab) VH: QVQLVESGGGLVQPGGSLRLSCAASGFTFRSYDMSWVRQAPGKGPEWVSAIKNGGGITYYADSVKGRFTISRDNAKNTLYLQMNSLKPEDTAVYYCATTHGIGTLGFGSWGQGTQVTVSS VL: SYELTQSASVSVALTQTAKITCDGNNIGSKSAQWYQQKPGQAPALVIYADEYRPEGIPERFSGSNSGNTATLIISGAQAEDEADYYCQVWDGSAAVFGRGTHLTVL
Result :: Satisfied

Query :: Does this binder meet the criterion Bmax < 0.9 OD? 11F02 Fab (Fab, V domains shown, Fab with human CH1 (including part of the hinge region) and human lambda constant domain; also called 11F02 hFab) VH: ELQVVESGGGLVQPGGSLRLSCAASGFTFSTNYMNWVRQAPGKGLEWVSGITSHGARTYYADSVKGRFTISRDNSKNTLYLQMNSLKPEDTALYYCARTDHASLDAWGQGTLVTVSS VL: QTVVTQEPSLSVSPGGTVTLTCGLSSGSVTSSNYPGWYQQKPGQAPRTLIYNTNSRYSGVPNRFSGSISGNKAALTITGAQPEDEADYYCALYMGSSSYNTVFGGGTHLTVL
Result :: Satisfied

Query :: Does this binder meet the criterion Bmax < 0.9 OD? 8H11 Fab (Fab, V domains shown, Fab with human CH1 (including part of the hinge region) and human lambda constant domain; also called 8H11 hFab) VH: ELQLVESGGGLVQPGGSLRLSCAASGFTFSTNYMNWVRQAPGKGLEWVSGITSGGGRTYYADSVKGRFTISRDNAKNTLYLQMNSLKPEDTALYYCARTDHAWLDAWGQGTLVTVSS VL: QAGLTQPPSVSGTLGKTVTISCAGTSSDVGYGNYVSWYQQLPGTAPKLLIYAVSTRASGIPDRFSGSKSGNTASLTISGLLSEDEADYYCASYRSSNNYVFGGGTKLTVL
Result :: Not satisfied

Query :: Does this binder meet the criterion Bmax < 0.9 OD? 10D02 Fab (Fab, V domains shown, Fab with human CH1 (including part of the hinge region) and human lambda constant domain; also called 10D2; 10D02 hFab) VH: EVQLVESGGGLVQPGGSLRVSCAASGFTFSSYYMSWVRQAPGKGLEWVSGIVTGGGRTHYTDSVKGRFTITRDNAKNTLYLQMNSLRPEDTALYYCARVNGVVTNYDYWGQGTQVTVSS VL: QAVLTQPPSVSGSPGKTVTISCAGTSSDVGYGNYVSWYQQLPGMAPKLLIYDVNKRASGITDRFSGSKSGNTASLTISGLQSEDEADYFCASYRSPNNVVFGQGTHLTVL
Result :: Not satisfied

Query :: Does this binder meet the criterion Bmax < 0.9 OD? 10A06 Fab (Fab, V domains shown, Fab with human CH1 (including part of the hinge region) and human lambda constant domain; also called 10A06 hFab) VH: QVQLVESGGGLVQPGGSLRLSCAASGFTFGNYDMSWVRQAPGKGPEWVSDINSGGGSTYYADSVKGRFTISRDNAKNSLLLQMNSLKPEDTAVYYCATGYTGYYYWGQGTQVTVSS VL: QTVVTQEPSLSVSPGGTVTLTCGLSSGSVTSSNYPAWYQQTPGQAPRALIYSINSRHSGVPDRFSGSISGNKAALTITGAQAEDEADYYCTLYMGTGSNNVVFGGGTHLTVL
Result :: Satisfied

Query :: Does this binder meet the criterion Bmax < 0.9 OD? 11F12 Fab (Fab, V domains shown, Fab with human CH1 (including part of the hinge region) and human lambda constant domain; also called 11F12 hFab) VH: QVQLQESGGGLVQPGGSLRLSCAASGFTFSTNYMNWVRQAPGKGLEWVSGITSGGGRTYYADSVKGRFTISRDNAKNTLYLQMNSLKPEDTALYYCARTDHAWLDAWGQGTLVTVSS VL: HSAVTQPPSVSGTLGKTVTISCAGTSSDVGYGNYVSWYQHLPGTAPKLLIYAVSTRASGVPDRFSGSKSGNTASLTISGLQSEDEGDYYCASYSVRNNVVFGGGTRLTVL
Result :: Not satisfied

Query :: Does this binder meet the criterion Bmax < 0.9 OD? 1D11 Fab (Fab, V domains shown, Fab with human CH1 (including part of the hinge region) and human lambda constant domain; also called Fab-1D11; 1D11 hFab) VH: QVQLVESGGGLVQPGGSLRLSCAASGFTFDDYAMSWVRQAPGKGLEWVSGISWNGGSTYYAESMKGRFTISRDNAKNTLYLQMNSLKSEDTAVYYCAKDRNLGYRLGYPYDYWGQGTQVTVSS VL: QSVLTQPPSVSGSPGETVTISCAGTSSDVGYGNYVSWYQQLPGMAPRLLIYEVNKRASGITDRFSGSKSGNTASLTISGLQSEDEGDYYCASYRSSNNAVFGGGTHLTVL
Result :: Not satisfied

Query :: Does this binder meet the criterion Bmax < 0.9 OD? 10B02 Fab (Fab, V domains shown, Fab with human CH1 (including part of the hinge region) and human lambda constant domain; also called 10B02 hFab) VH: QVQLVESGGGLVQPGGSLRVSCAASGFTFSYHYMNWVRQAPGKGLEWVSGISAGGGRTYYADSVKGRFTISRDNAKNTLYLQMNSLNAEDTALYYCARVHGITNDYWGQGTQVTVSS VL: QSALTQPPSVSGSPGKTVTISCAGTSSDVGYGNYVSWYQQLPGMAPKLLIYEVNKRASGITDRFSGSKSGNTAFLTISGLQSEDEADYYCASYRNSNNWVFGGGTHLTVL
Result :: Satisfied
